Parameter: pKd. Scope: all listed entries.
- target_under_test: T1, hRET.mmh (human, UniProt P07949 29-635, biotinylated in the ELISA of Example 4 (biot-hRET.mmh); not in the SPR of Example 3)
- T1 construct: also called biot-hRET.mmh; soluble monomeric human RET
- test: SPR Biacore T200, mAb capture, 25 C
The scale used: pKd is minus the common logarithm of the concentration in molar units.

// worked examples, pKd included
binder: H4H8062P (antibody, human IgG4, V domains shown, human IgG4 Fc (H4H prefix)) VH: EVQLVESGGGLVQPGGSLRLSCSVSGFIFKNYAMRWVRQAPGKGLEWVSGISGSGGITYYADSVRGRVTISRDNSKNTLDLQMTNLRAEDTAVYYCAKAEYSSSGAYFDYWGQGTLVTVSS VL: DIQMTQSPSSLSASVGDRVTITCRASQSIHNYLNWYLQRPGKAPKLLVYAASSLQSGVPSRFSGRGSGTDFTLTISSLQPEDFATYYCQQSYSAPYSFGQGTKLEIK
pKd: 9.13
--
binder: H4H8046P (antibody, human IgG4, V domains shown, human IgG4 Fc (H4H prefix)) VH: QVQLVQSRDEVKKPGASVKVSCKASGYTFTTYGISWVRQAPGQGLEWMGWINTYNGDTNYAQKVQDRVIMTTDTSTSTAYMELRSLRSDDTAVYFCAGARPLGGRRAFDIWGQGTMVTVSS VL: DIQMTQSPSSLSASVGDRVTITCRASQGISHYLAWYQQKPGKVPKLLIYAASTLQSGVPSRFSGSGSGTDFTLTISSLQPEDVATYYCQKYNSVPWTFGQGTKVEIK
pKd: 9.01
--
binder: H4H8045P (antibody, human IgG4, V domains shown, human IgG4 Fc (H4H prefix)) VH: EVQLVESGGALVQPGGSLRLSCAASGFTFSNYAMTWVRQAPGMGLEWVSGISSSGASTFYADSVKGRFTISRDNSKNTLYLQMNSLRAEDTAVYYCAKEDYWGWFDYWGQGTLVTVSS VL: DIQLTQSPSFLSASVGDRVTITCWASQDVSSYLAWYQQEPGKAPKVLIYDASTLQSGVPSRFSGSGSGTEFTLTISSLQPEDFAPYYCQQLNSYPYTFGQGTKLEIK
pKd: 9.05
--
binder: H4H8076P (antibody, human IgG4, V domains shown, human IgG4 Fc (H4H prefix)) VH: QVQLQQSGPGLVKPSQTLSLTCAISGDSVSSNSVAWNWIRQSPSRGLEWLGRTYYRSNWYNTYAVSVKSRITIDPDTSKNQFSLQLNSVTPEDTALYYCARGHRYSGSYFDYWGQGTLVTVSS VL: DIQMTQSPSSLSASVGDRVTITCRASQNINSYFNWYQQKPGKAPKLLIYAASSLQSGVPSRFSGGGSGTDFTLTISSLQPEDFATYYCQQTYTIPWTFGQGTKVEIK
pKd: 8.82

Form field pKd, entry H4H8071P (antibody, human IgG4, V domains shown, human IgG4 Fc (H4H prefix)) VH: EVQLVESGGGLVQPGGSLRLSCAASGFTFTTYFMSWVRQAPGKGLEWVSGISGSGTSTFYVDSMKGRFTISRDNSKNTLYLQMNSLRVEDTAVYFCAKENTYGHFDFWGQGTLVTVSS VL: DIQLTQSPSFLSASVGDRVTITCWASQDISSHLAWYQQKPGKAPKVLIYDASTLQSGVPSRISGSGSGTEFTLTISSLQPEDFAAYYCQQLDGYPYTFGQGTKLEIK : 8.85

The values you see were collected from patent US20220185900A1.
